# System: NCI-H524 (ATCC) human lung cancer cells
# Format: cell-based
# measurement conditions: Table 15; treated 2 hours, further incubated 70 hours; read-out: H524 IC50
Numbered stars: 1 amine (or outer) side, 2 acyl side, 3 side chain; on linkers, the order of the positions; unused ones are H or OH. Bridge positions count the residues as written; N and C are the ends. Square brackets hold non-standard residues; d marks the D form. Peptide text beside a SMILES is read from it. * marks the point of attachment. X1 = COc1cc2cc(c1Cl)N(C)C(=O)C[C@H](OC(=O)[C@H](C)N(C)C(=O)CCS*)[C@]1(C)O[C@H]1[C@H](C)[C@@H]1C[C@@](O)(NC(=O)O1)[C@H](OC)/C=C/C=C(\C)C2; N(3-sulfanylpropyl)dPhe = O=C([C@@H](Cc1ccccc1)N(CCCS[*:3])[*:1])[*:2]

[
  {
    "compound": "COc1cc2cc(c1Cl)N(C)C(=O)C[C@H](OC(=O)[C@H](C)N(C)C(=O)CCSSCCC(=O)NCCNC(=O)[C@H](Cc1c[nH]c3ccccc13)NC(=O)[C@@H]1CSSC[C@H](NC(=O)[C@H](N)Cc3ccccc3)C(=O)N[C@@H](Cc3ccc(O)cc3)C(=O)N[C@H](Cc3c[nH]c4ccccc34)C(=O)N[C@@H](CCCCN)C(=O)N[C@@H]([C@@H](C)O)C(=O)N1)[C@]1(C)O[C@H]1[C@H](C)[C@@H]1C[C@@](O)(NC(=O)O1)[C@H](OC)/C=C/C=C(\\C)C2 [Conjugate 45]",
    "unit label": "nM",
    "IC50": 345
  },
  {
    "compound": "COc1cc2cc(c1Cl)N(C)C(=O)C[C@H](OC(=O)[C@H](C)N(C)C(=O)CCSSCCC(=O)NCCCC[C@H]1C(=O)N[C@@H](Cc3ccc(O)cc3)C(=O)N[C@H](Cc3c[nH]c4ccccc34)C(=O)N[C@@H](CCCCN)C(=O)N[C@@H]([C@@H](C)O)C(=O)N[C@@H](Cc3ccccc3)C(=O)N1C)[C@]1(C)O[C@H]1[C@H](C)[C@@H]1C[C@@](O)(NC(=O)O1)[C@H](OC)/C=C/C=C(\\C)C2 [Conjugate 10]",
    "unit label": "nM",
    "IC50": 156
  },
  {
    "compound": "COc1cc2cc(c1Cl)N(C)C(=O)C[C@H](OC(=O)[C@H](C)N(C)C(=O)CCSSCCCN[C@H](Cc1ccccc1)C(=O)N[C@H]1CSSC[C@@H](C(=O)N[C@@H](Cc3c[nH]c4ccccc34)C(N)=O)NC(=O)[C@H](C(C)C)NC(=O)[C@H](CCCCN)NC(=O)[C@@H](Cc3c[nH]c4ccccc34)NC(=O)[C@H](Cc3ccc(O)cc3)NC1=O)[C@]1(C)O[C@H]1[C@H](C)[C@@H]1C[C@@](O)(NC(=O)O1)[C@H](OC)/C=C/C=C(\\C)C2 [Conjugate 78] (H-[N(3-sulfanylpropyl)dPhe](X1)CY[dW]KVCW-NH2; disulfide 2-7)",
    "unit label": "nM",
    "IC50": 124
  }
]

* * *

# System: NCI-H69 SCLC (small cell lung cancer) tumors
# protocol summary: H69 tumor DM-1 levels by LC/MS-MS
# Type: in vivo, mice
# measurement conditions: 24 hour time point; dosed at 1 mg/kg (conjugates, nanoparticles) or 0.4 mg/kg for DM-1
Numbered stars: 1 amine (or outer) side, 2 acyl side, 3 side chain; on linkers, the order of the positions; unused ones are H or OH. Bridge positions count the residues as written; N and C are the ends. Square brackets hold non-standard residues; d marks the D form. Peptide text beside a SMILES is read from it. * marks the point of attachment. X1 = COc1cc2cc(c1Cl)N(C)C(=O)C[C@H](OC(=O)[C@H](C)N(C)C(=O)CCS*)[C@]1(C)O[C@H]1[C@H](C)[C@@H]1C[C@@](O)(NC(=O)O1)[C@H](OC)/C=C/C=C(\C)C2; N(3-sulfanylpropyl)dPhe = O=C([C@@H](Cc1ccccc1)N(CCCS[*:3])[*:1])[*:2]
Exam item: assign yes to entries whose H69 tumor DM-1 levels is below 100 nM and no to entries at or above 100 nM. Note that a value of exactly 100 nM receives no.

[
  {
    "molecule": "COc1cc2cc(c1Cl)N(C)C(=O)C[C@H](OC(=O)[C@H](C)N(C)C(=O)CCSSCCC(=O)NCCCC[C@H]1C(=O)N[C@@H](Cc3ccc(O)cc3)C(=O)N[C@H](Cc3c[nH]c4ccccc34)C(=O)N[C@@H](CCCCN)C(=O)N[C@@H]([C@@H](C)O)C(=O)N[C@@H](Cc3ccccc3)C(=O)N1C)[C@]1(C)O[C@H]1[C@H](C)[C@@H]1C[C@@](O)(NC(=O)O1)[C@H](OC)/C=C/C=C(\\C)C2 [Conjugate 10]",
    "group": "yes"
  },
  {
    "molecule": "CCCCN(CCSSCCC(=O)N(C)[C@@H](C)C(=O)O[C@H]1CC(=O)N(C)c2cc(cc(OC)c2Cl)C/C(C)=C/C=C/[C@@H](OC)[C@@]2(O)C[C@H](OC(=O)N2)[C@@H](C)[C@@H]2O[C@@]12C)C(=O)CC[C@H]1C(=O)N[C@@H](Cc2ccc(O)cc2)C(=O)N[C@H](Cc2c[nH]c3ccccc23)C(=O)N[C@@H](CCCCN)C(=O)N[C@@H]([C@@H](C)O)C(=O)N[C@@H](Cc2ccccc2)C(=O)N1C [Conjugate 22]",
    "group": "no"
  },
  {
    "molecule": "COc1cc2cc(c1Cl)N(C)C(=O)C[C@H](OC(=O)[C@H](C)N(C)C(=O)CCSSCCOc1ccc(C[C@@H](N)C(=O)N[C@H]3CSSC[C@@H](C(=O)N[C@H](C(=O)O)[C@@H](C)O)NC(=O)[C@H]([C@@H](C)O)NC(=O)[C@H](CCCCN)NC(=O)[C@@H](Cc4c[nH]c5ccccc45)NC(=O)[C@H](Cc4ccc(O)cc4)NC3=O)cc1)[C@]1(C)O[C@H]1[C@H](C)[C@@H]1C[C@@](O)(NC(=O)O1)[C@H](OC)/C=C/C=C(\\C)C2 [Conjugate 111]",
    "group": "yes"
  },
  {
    "molecule": "COc1cc2cc(c1Cl)N(C)C(=O)C[C@H](OC(=O)[C@H](C)N(C)C(=O)CCSSCCCN[C@H](Cc1ccccc1)C(=O)N[C@H]1CSSC[C@@H](C(=O)N[C@@H](Cc3c[nH]c4ccccc34)C(N)=O)NC(=O)[C@H](C(C)C)NC(=O)[C@H](CCCCN)NC(=O)[C@@H](Cc3c[nH]c4ccccc34)NC(=O)[C@H](Cc3ccc(O)cc3)NC1=O)[C@]1(C)O[C@H]1[C@H](C)[C@@H]1C[C@@](O)(NC(=O)O1)[C@H](OC)/C=C/C=C(\\C)C2 [Conjugate 78] (H-[N(3-sulfanylpropyl)dPhe](X1)CY[dW]KVCW-NH2; disulfide 2-7)",
    "group": "yes"
  },
  {
    "molecule": "COc1cc2cc(c1Cl)N(C)C(=O)C[C@H](OC(=O)[C@H](C)N(C)C(=O)CCSSC[C@H](NC(=O)CC[C@H]1C(=O)N[C@@H](Cc3ccc(O)cc3)C(=O)N[C@H](Cc3c[nH]c4ccccc34)C(=O)N[C@@H](CCCCN)C(=O)N[C@@H]([C@@H](C)O)C(=O)N[C@@H](Cc3ccccc3)C(=O)N1C)C(=O)NC(C)(C)CC(C)(C)C)[C@]1(C)O[C@H]1[C@H](C)[C@@H]1C[C@@](O)(NC(=O)O1)[C@H](OC)/C=C/C=C(\\C)C2 [Conjugate 16]",
    "group": "yes"
  },
  {
    "molecule": "COc1cc2cc(c1Cl)N(C)C(=O)C[C@H](OC(=O)[C@H](C)N(C)C(=O)CCSSCCCN[C@H](Cc1ccccc1)C(=O)N[C@H]1CSSC[C@@H](C(=O)N[C@H](C(=O)O)[C@@H](C)O)NC(=O)[C@H]([C@@H](C)O)NC(=O)[C@H](CCCCN)NC(=O)[C@@H](Cc3c[nH]c4ccccc34)NC(=O)[C@H](Cc3ccc(O)cc3)NC1=O)[C@]1(C)O[C@H]1[C@H](C)[C@@H]1C[C@@](O)(NC(=O)O1)[C@H](OC)/C=C/C=C(\\C)C2 [Conjugate 80]",
    "group": "yes"
  },
  {
    "molecule": "COc1cc2cc(c1Cl)N(C)C(=O)C[C@H](OC(=O)[C@H](C)N(C)C(=O)CCSSCCNC(=O)[C@@H](NC(=O)[C@@H]1CSSC[C@H](NC(=O)[C@H](N)Cc3ccccc3)C(=O)N[C@@H](Cc3ccc(O)cc3)C(=O)N[C@H](Cc3c[nH]c4ccccc34)C(=O)N[C@@H](CCCCN)C(=O)N[C@@H]([C@@H](C)O)C(=O)N1)[C@@H](C)O)[C@]1(C)O[C@H]1[C@H](C)[C@@H]1C[C@@](O)(NC(=O)O1)[C@H](OC)/C=C/C=C(\\C)C2 [Conjugate 35]",
    "group": "yes"
  },
  {
    "molecule": "COc1cc2cc(c1Cl)N(C)C(=O)C[C@H](OC(=O)[C@H](C)N(C)C(=O)CCSSCCNC(=O)CC[C@H]1C(=O)N[C@@H](Cc3ccc(O)cc3)C(=O)N[C@H](Cc3c[nH]c4ccccc34)C(=O)N[C@@H](CCCCN)C(=O)N[C@@H]([C@@H](C)O)C(=O)N[C@@H](Cc3ccccc3)C(=O)N1C)[C@]1(C)O[C@H]1[C@H](C)[C@@H]1C[C@@](O)(NC(=O)O1)[C@H](OC)/C=C/C=C(\\C)C2 [Conjugate 14]",
    "group": "yes"
  },
  {
    "molecule": "COc1cc2cc(c1Cl)N(C)C(=O)C[C@H](OC(=O)[C@H](C)N(C)C(=O)CCSSC[C@H](NC(=O)[C@@H]1CSSC[C@H](NC(=O)[C@H](N)Cc3ccccc3)C(=O)N[C@@H](Cc3ccc(O)cc3)C(=O)N[C@H](Cc3c[nH]c4ccccc34)C(=O)N[C@@H](CCCCN)C(=O)N[C@@H]([C@@H](C)O)C(=O)N1)C(N)=O)[C@]1(C)O[C@H]1[C@H](C)[C@@H]1C[C@@](O)(NC(=O)O1)[C@H](OC)/C=C/C=C(\\C)C2 [Conjugate 57]",
    "group": "no"
  }
]
